Taken from patent EP2651946B1.

Biological target: human kinase Mps-1 (Homo sapiens)
Construct: N-terminally GST-tagged human full length recombinant Mps-1 kinase
Sequence (P33981 1-857): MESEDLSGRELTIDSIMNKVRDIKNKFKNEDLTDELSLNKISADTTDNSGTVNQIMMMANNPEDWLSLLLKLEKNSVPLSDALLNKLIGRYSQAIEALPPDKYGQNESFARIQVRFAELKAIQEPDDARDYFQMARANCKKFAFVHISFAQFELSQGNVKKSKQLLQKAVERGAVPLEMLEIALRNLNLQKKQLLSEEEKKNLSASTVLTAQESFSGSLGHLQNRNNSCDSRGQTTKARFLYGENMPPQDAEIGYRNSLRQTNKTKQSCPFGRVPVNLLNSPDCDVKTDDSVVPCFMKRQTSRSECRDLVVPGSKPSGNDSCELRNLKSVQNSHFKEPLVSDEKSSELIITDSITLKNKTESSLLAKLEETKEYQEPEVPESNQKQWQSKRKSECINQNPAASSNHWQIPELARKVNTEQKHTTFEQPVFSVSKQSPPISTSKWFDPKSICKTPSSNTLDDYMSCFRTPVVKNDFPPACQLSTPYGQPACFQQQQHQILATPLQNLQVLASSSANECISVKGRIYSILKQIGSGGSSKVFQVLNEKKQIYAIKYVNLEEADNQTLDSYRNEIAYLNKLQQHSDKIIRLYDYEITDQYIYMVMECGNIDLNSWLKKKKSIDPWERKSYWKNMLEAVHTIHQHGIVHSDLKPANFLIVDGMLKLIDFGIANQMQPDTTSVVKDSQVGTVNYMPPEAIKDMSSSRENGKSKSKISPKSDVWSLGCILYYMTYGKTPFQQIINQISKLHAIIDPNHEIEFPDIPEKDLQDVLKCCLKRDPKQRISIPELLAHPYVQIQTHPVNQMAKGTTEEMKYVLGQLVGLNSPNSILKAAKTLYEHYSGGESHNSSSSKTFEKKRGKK
Assay: Mps-1 kinase assay (TR-FRET)
Settings: N-terminally GST-tagged human full length recombinant Mps-1; 10 µM ATP; 1 µM peptide substrate; 15 min pre-incubation, 60 min reaction at 22°C; read-out: Mps1 IC50
Assignment: determine reported IC50 for the given compounds.
Numbers only, in nM.

[
  {
    "compound": "COC(=O)c1nc2c(NCC(C)C)nc(-c3ccccc3)cn2c1-c1ccc(C(=O)NC2CC2)cc1 [Example 3-1]",
    "IC50 / nM": 4250
  },
  {
    "compound": "CC(C)CNc1nc(-c2ccccc2)cn2c(-c3ccc(C(=O)NC4CC4)cc3)c(N)nc12 [Example 4-1]",
    "IC50 / nM": 16
  }
]

Qu. Query: IC50; subject: CC(C)CNc1nc(-c2ccccc2)cn2c(-c3ccc(C(=O)NC4CC4)cc3)c(CO)nc12 [Example 1-1]
Ans. 178
